Target: T1, SHANK1, Q9Y566
T1 sequence (Q9Y566 658-767, limits assumed, looked up): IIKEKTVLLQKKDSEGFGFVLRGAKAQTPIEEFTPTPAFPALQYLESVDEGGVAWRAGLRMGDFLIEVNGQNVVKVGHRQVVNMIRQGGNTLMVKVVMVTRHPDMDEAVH
Experiment: holdup assay
Design: key: below the threshold = too weak to quantify, mostly under pKd 3.1 to 4
Details: plain residues with an end cap or a label only (N-terminal biotin on a linker: ado-ado)
reported_metric: pKd

// solved cases for pKd follow
binder: PEYLGLDVPV [ERBB2, P04626]
pKd: below the threshold

binder: NLSIEKETKL [ASNSD1, Q9NWL6]
pKd: 4.52

binder: LKVPPEERLI [CRB2, Q5IJ48]
pKd: below the threshold

binder: DDPSTAETVL [ABCA7, Q8IZY2]
pKd: 4.74

Ask: # lookup: pKd of RRRESYSTTV [EVI5, O60447]
Result: 4.36

Ask: Please report the recorded pKd for DDENIRTSDV [PLEKHA2, Q9HB19] .
Result: below the threshold

Ask: What does the record list as pKd for AKPSRISTVV [IQSEC2, Q5JU85] ?
Result: 3.96

Ask: What pKd value was documented for this binder, ETQVTAETVI [TMEM225B, P0DP42] ?
Result: below the threshold

Ask: What pKd value was documented for this binder, IPLDGETEEL [MYOZ1, Q9NP98] ?
Result: below the threshold

Ask: Report pKd for KKAPTNEFYA [SDC4, P31431] please.
Result: below the threshold

Ask: What does the record list as pKd for PKRSFIESNV [TANC1, Q9C0D5] ?
Result: below the threshold

Ask: Name the recorded pKd for VNKSKLLTDV [KCNA1, Q09470] .
Result: below the threshold

Ask: Endpoint output: pKd of SKSNFGSEPL [KIF17, Q9P2E2] . Value?
Result: below the threshold

Ask: Which pKd reading was recorded for the binder QSARLWETSI [ADAM22, Q9P0K1] ?
Result: 3.72

Ask: For the binder shown here, VRNLPESEEL [MYOZ3, Q8TDC0] , give the reported pKd.
Result: below the threshold

Ask: // pKd lookup, key: QMNQTLPVQV [EPHB3, P54753]
Result: 3.54
